system: Phytophthora infestans; experiment: whole plant or invertebrate; type: in vivo; conditions: tomato late blight; spray the day before inoculation; compounds without asterisk (not 40 or 10 ppm)
Test C disease rating (100 = 100% disease control, 0 = no disease control) listing for selected compounds.
Enter your answer as a number in %; do not include the unit.

| Compound | System tested | Readout number |
| --- | --- | --- |
| CCc1cccc(CC(=O)N2CCC(c3nc(C(=O)N(C)[C@H](C)c4ccccc4)cs3)CC2)c1 [compound 119] | Phytophthora infestans | 99 |

Looking up CC[C@H](c1ccccc1)N(C)C(=O)c1csc(C2CCN(C(=O)Cc3cc(C(F)(F)F)ccc3Cl)CC2)n1 [compound 114] , I found its Test C disease rating (100 = 100% disease control, 0 = no disease control) recorded as 100

Looking up C[C@H](c1ccccc1)N(C)C(=O)c1csc(C2CCN(C(=O)Cc3cc(C(F)(F)F)ccc3Cl)CC2)n1 [compound 39] , I found its Test C disease rating (100 = 100% disease control, 0 = no disease control) recorded as 100
